System: SR leukemia
Experiment: NCI-60 one-dose screen, 48 h
Conditions: 10 µM unless noted
About 83,000 compounds went through this panel and 20% of them were active in at least one assay; those are over-represented in the sample as a whole. Active and inactive are the calls of the source. Rule for the calls: active = growth percent below 10; inactive = the rest.
Return exactly one item of Yes = active, No = inactive

COc1ccc(C2CC(c3ccc(OC)c(OC)c3)=NN2C(=O)c2cc(OC)c(OC)c(OC)c2)c(OC)c1 (configuration not stated) : No
Nc1ccc(C2=Nc3cccc4cccc(c34)S2)cc1 : No
CC1SC(c2c(Cl)cccc2Cl)N(NC(=O)c2[nH]c3ccc(F)cc3c2-c2ccccc2)C1=O (configuration not stated) : No
CCN(CC)c1ccc(N=Nc2cc(Cl)ccc2Cl)c(NC(=O)CCC(=O)O)c1 : No
C=C(C[C@](O)(C(=O)/C=C/c1ccc(Cl)cc1)C(=O)OC)c1ccccc1 : No

(Q) Recorded test call requested for NC(=O)N/N=C/c1ccc(Br)o1
(A) No

(Q) Recorded test call requested for Cc1cc(C(C)(C)C)cc(C)c1CC1=NCCN1
(A) No

(Q) Recorded test call requested for CCOc1cccc(C2CC(=O)Nc3cc4c(cc32)OCO4)c1 (configuration not stated)
(A) No

(Q) Recorded test call requested for O=[N+]([O-])c1ccc(N/N=C/c2c(O)ccc3ccccc23)nc1
(A) No

(Q) Recorded test call requested for C[N+]1(CCC[N+]2(C)C[C@@H]3[C@H](C2)[C@@H]2C=C[C@H]3C2)CCOCC1 (some centres not stated)
(A) No

(Q) Recorded test call requested for COc1cc(C2NC(c3ccc(Cl)cc3)C(C)/C(=N/NC(N)=S)C2C)cc(OC)c1OC (configuration not stated)
(A) No

(Q) Recorded test call requested for Clc1ncn[nH]1
(A) No

(Q) Recorded test call requested for CN(C)c1cccc2c(S(=O)(=O)N[C@H]3CC[C@H]4[C@@H]5CCc6cc(O)ccc6[C@H]5CC[C@]34C)cccc12
(A) Yes

(Q) Recorded test call requested for O=C(O)C(=O)O
(A) No

(Q) Recorded test call requested for COc1cc2c(cc1OCCCCCn1c(-c3ccc(OCc4ccccc4)cc3)nc3cc(N4CCOCC4)ccc31)N=C[C@@H]1CCCN1C2=O
(A) No

(Q) Recorded test call requested for COc1ccc(-c2oc3cc(O)c(OC)c(O)c3c(=O)c2OC)cc1O
(A) Yes

(Q) Recorded test call requested for Clc1ccccc1[C@@H]1C[C@@H]2Cc3cc(Br)c4ccccc4c3N1O2
(A) Yes

(Q) Recorded test call requested for COc1cc(/C=C/C(=O)c2c(-c3ccc(Cl)cc3)nc3sc(C)nn23)cc(OC)c1OC
(A) No

(Q) Recorded test call requested for Clc1ccc2c(Nc3ccc4oc(NCCN5CCCC5)nc4c3)ccnc2c1
(A) Yes

(Q) Recorded test call requested for COc1ccc(-c2csc(NC(=O)c3cc(OC)c(OC)c(OC)c3)n2)cc1
(A) No
